# target-entity: T1, Plasmodium falciparum Histidine Rich Protein-2 (Pf.HRP-2) (Plasmodium falciparum)
# T1 chain: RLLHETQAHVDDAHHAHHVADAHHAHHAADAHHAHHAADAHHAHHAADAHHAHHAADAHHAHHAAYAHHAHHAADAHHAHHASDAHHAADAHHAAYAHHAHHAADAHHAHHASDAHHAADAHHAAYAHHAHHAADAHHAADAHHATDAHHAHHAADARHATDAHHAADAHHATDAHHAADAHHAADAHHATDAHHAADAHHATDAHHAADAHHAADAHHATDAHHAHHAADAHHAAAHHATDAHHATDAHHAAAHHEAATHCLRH
# assay-method-text: method and form of the target not stated
Ends that are not written are not given here.
endpoint-name: EC50 (µM)
Provide the reading as a plain figure in µM.

Give EC50 for YKYYR (also: cyclic, mode of cyclisation not given here, also called cyclic YKYYR) [Cy(YKYYR) (SEQ ID NO:29)] 0.22

Continuing:
Give EC50 for GWNVDL (also: cyclic peptide, closure not given here, also called cy(GWNVDL)) [cyclic PCC with variable sequence GWNVDL (SEQ ID NO:30)] 0.05

Give EC50 for cy(YKYYR)(SEQ ID NO:29)-linker-cy(GWNVDL) (SEQ ID NO:30) (not fully specified, One covalent molecule; also called the resultant biligand) peptide 1: YKYYR peptide 2: GWNVDL 0.00054

Give EC50 for YKYYR (also: cyclic peptide (Cy), closure not given here, dimer: two macrocycles joined by a linker of about 1.5 nm, also called the resultant linked biligand) [linked biligand of two Cy(YKYYR) (SEQ ID NO:29) PCCs with about a 1.5 nm long linker] 0.0208
